# Test system: KM12 colon
# TEST_SUMMARY: NCI-60 one-dose screen, 48 h (100 = growth as untreated, 0 = no growth, -100 = all killed)
# MEASUREMENT_CONDITIONS: 10 µM unless noted
This is part of a sample that, as a whole, favours compounds with a hit. Of some 83,000 tested, about 20% had one in any assay.
Quick reference: growth of the listed items.

COMPOUND	growth, %
N#CC(C#N)N=Nc1ccc(Cl)cc1Cl	101
Cc1cccc(NC(=O)CSc2nc3ccc([N+](=O)[O-])cc3[nH]2)c1	81.9
O=C1NC(=O)c2c1c1c3ccccc3[nH]c1c1oc3ccc(F)cc3c21	45.9
COc1ccc(Cl)cc1Nc1nc(C(F)(F)F)ccc1C(=O)N/N=C/c1ccccc1Cl	7.71
CC(C)CSc1oc(-c2ccccc2)nc1S(=O)(=O)c1ccccc1	96
O=C1Nc2ccc(F)cc2/C1=N/c1nnc(Sc2ccccc2)s1	88
CCCCCCC(=O)Nc1ncc(Cc2ccc(C)cc2)s1	30.7
O=C1OCC2=C1C(c1cccc(C(F)(F)F)c1)c1cc3c(cc1N2CCO)OCO3 (stereo unspecified)	24.9
COc1ccc2c(O)c(/C=C3\N=Nc4ccccc43)oc2c1C[C@H]1CCNC[C@H]1F	2.5
COc1cc(Nc2c3ccc(Cl)cc3nc3ccc(OC)cc23)c2ncccc2c1	39.3
COCCCOc1cc(C[C@@H](C[C@H](N)[C@@H](O)C[C@H](C(=O)NCC(C)(C)C(N)=O)C(C)C)C(C)C)ccc1OC	109
CN1CCN(c2ccc3c(c2)nc(NNC(=O)c2cnccn2)c2cccn23)CC1	19.3
C=CCn1c(SCC(=O)Nc2ccc(C(=O)/C=C/c3ccc(OC)cc3)cc2)nnc1-c1ccccc1	82.6
N#Cc1c(-c2cccc([N+](=O)[O-])c2)cc(-c2ccc(Nc3nc(Nc4ccc(F)cc4)nc(Nc4ccc(F)cc4)n3)cc2)nc1N	114
N#Cc1nc2c(S(=O)(=O)c3ccccc3)c(N)n(Cc3cccnc3)c2nc1C#N	102
Nc1nc(C(=O)N/N=C/c2ccc(N3CCOCC3)cc2)nn1-c1ccc(S(N)(=O)=O)cc1	103
COc1cc2c(c(OC)c1OC)C(=O)CC(c1cccc(NC(=O)c3ccccc3Br)c1)O2 (stereo unspecified)	103
Cc1nc2sc(C(=O)Nc3ccc(Cl)cc3)c(N)c2cc1C(O)c1ccccc1 (stereo unspecified)	21.7
O=C1NC(=O)c2c1c1c3ccccc3[nH]c1c1oc3cc(Br)ccc3c21	64.4
Cn1cc(-c2nonc2-c2c[nH]c3ccc(F)cc23)c2cc(Br)ccc21	29.4
CC(C)c1ccc(-n2c(=S)[nH]c3sc4c(c3c2=O)CCC(=O)C4)cc1	18.6
CN(CCC#N)c1ccc(/C=C2\NC(=O)NC2=O)cc1	101
Cc1[nH]c(C(=O)Nc2cccc(OC3CCNCC3)c2)c(Cl)c1Cl	57
CCN1C(=O)N(CC)C2C1NN=c1s/c(=C3\C(=O)N(CCc4ccccc4)c4ccccc43)c(=O)n12 (stereo unspecified)	13.9
COC(=O)C1=Nc2ccc(F)cc2/C1=C\c1sc(Nc2ccc(O)cc2)nc1O	49.5
COC(=O)/C(CCC=C(C)C)=C1\[C@@H](OC(C)=O)C[C@@]2(C)[C@H]1CC(=O)[C@H]1[C@@]3(C)CCC(N4CCCC4)[C@@H](C)[C@@H]3CC[C@@]12C (stereo partly specified)	105
CCNC(=O)Oc1ccc(/C(=C(/C)Cc2ccc(OC)cc2)c2ccc(OCCN3CCCCCC3)cc2)cc1	53.9
CCN(CC)c1ccc(/C=N/NC(=O)c2ccc(Nc3ccnc(C(F)(F)F)c3)cc2)c(O)c1	24.6
COC(=O)c1c2c(c(C)[n+]([O-])c1C)C(=O)C=CC2=O	4.57
COc1ccc(Nc2ncc(C(N)=O)c(NCCCNC(=O)C3CCC3)n2)cc1	29.3
CC1(C)CC2=C3C=C[C@@H]4[C@@]5(C)CC[C@H](O)C(C)(C)[C@@H]5CC[C@@]4(C)[C@]3(C)CC[C@@]2(C(=O)O)CC1=O	42.6
